src = paper PMC3125946

# TARGET: the molecule itself
# RUN DESCRIPTION: SEC
Each record here notes measured percent dimer (Monomer:Dimer Ratio).
MEASURE: percent dimer (Monomer:Dimer Ratio)

PROTEIN: MjCobY Y80F (enzyme, Methanocaldococcus jannaschii, UniProt Q58517 1-196, looked up) MDALIMAGGKGTRMGGVEKPLIKLCGRCLIDYVVSPLLKSKVNNIFIATSPNTPKTKEYINSAYKDYKNIVVIDTSGKGFIEDLNECIGYFSEPFLVVSSDLINLKSKIINSIVDYFYCIKAKTPDVEALAVMIPKEKYPNPSIDFNGLVPAGINVVSPKHGYQKEEIMVIDELIFNINTKDDLKLAEMLLKKDGL
MEASURE: percent dimer (Monomer:Dimer Ratio)
RESULT: 26%
--
PROTEIN: MjCobY P54A (enzyme, Methanocaldococcus jannaschii, UniProt Q58517 1-196, looked up) MDALIMAGGKGTRMGGVEKPLIKLCGRCLIDYVVSPLLKSKVNNIFIATSPNTAKTKEYINSAYKDYKNIVVIDTSGKGYIEDLNECIGYFSEPFLVVSSDLINLKSKIINSIVDYFYCIKAKTPDVEALAVMIPKEKYPNPSIDFNGLVPAGINVVSPKHGYQKEEIMVIDELIFNINTKDDLKLAEMLLKKDGL
MEASURE: percent dimer (Monomer:Dimer Ratio)
RESULT: 50%
--
PROTEIN: MjCobY P94A (enzyme, Methanocaldococcus jannaschii, UniProt Q58517 1-196, looked up) MDALIMAGGKGTRMGGVEKPLIKLCGRCLIDYVVSPLLKSKVNNIFIATSPNTPKTKEYINSAYKDYKNIVVIDTSGKGYIEDLNECIGYFSEAFLVVSSDLINLKSKIINSIVDYFYCIKAKTPDVEALAVMIPKEKYPNPSIDFNGLVPAGINVVSPKHGYQKEEIMVIDELIFNINTKDDLKLAEMLLKKDGL
MEASURE: percent dimer (Monomer:Dimer Ratio)
RESULT: 48%
